Assay: binders of probe aFGF2 on microarray, primary screen, stem cell growth factor project, biochemical, small-molecule microarray, fluorescence 635/667 (AID 1067);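 also: measures binding of biotinylated aFGF2 protein to printed compounds on slides; z-score merges feature fluorescence and signal-to-noise across triplicate slides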
Conditions: higher = more signal
property: composite z-score
Numbers only.

CO[C@@H]1COC(=O)CCC[C@@H](C)[C@H](OC)COC(=O)[C@H](Cc2ccccc2)NC(=O)CC=C[C@H]1C = -0.186
Cc1cc2c(nc1C)CCCN2CC(C)ON=C1[C@H]2CCn3c(=O)n(-c4ccccc4)c(=O)n3[C@H]2[C@H](O)[C@@H]2O[C@H]12 (stereo partly drawn) = 0.0477

Note: attention shifts to another entry.
q: Give its composite z-score value. Item: C=CC[C@]1(C(=O)NCc2ccccc2)N=C(c2ccc(OCCCO)cc2)O[C@H]1c1ccccc1
a: -0.0131
